List of inhibition values.
Study system: Pantothenate synthetase (Mycobacterium tuberculosis (strain ATCC 25618 / H37Rv)) (UniProt P9WIL5)
Sequence (P9WIL5 whole entry, looked up): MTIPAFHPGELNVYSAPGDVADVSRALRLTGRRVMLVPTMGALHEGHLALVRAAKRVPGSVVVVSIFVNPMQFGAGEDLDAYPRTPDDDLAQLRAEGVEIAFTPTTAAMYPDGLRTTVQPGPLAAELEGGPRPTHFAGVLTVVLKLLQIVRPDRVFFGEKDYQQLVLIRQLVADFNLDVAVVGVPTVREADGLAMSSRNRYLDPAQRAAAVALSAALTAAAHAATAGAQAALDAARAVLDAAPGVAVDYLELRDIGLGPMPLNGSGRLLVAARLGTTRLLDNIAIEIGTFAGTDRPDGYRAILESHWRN
Run description: Coupled enzyme confirmation of inhibitors against recombinant Mtb PanC (AID 375);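 further: 0% = full reaction with vehicle and 100% = no enzyme background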
Condition description: coupled enzyme assay; at 10 µM, hits give high values
State the answer as a number, implicitly in %.

Task item: Which measured inhibition value corresponds to "Cc1nn(-c2nc3ccccc3s2)c(C)c1Oc1ccccc1O" ?
Reply: 2

Task item: Which measured inhibition value corresponds to "O=C(CSCCSCC(=O)c1ccco1)c1ccco1" ?
Reply: 0

Task item: Which measured inhibition value corresponds to OC(CNCC1COc2ccccc2O1)COCc1cccs1 (configuration not stated) ?
Reply: 0

Task item: Which measured inhibition value corresponds to "CCOC(=O)c1c(NC(=O)c2cccs2)sc(C)c1C" ?
Reply: 0

Task item: Which measured inhibition value corresponds to "COC(=O)c1ccccc1OCC(=O)NC1CCCCC1" ?
Reply: 0

Task item: Which measured inhibition value corresponds to CCOc1cc(C2C(C#N)=C(N)OC(C)=C2C(C)=O)cc(Br)c1O (configuration not stated) ?
Reply: 1

Task item: Which measured inhibition value corresponds to "Cn1c(=O)c2c(nc(SCC(=O)N3CCCc4ccccc43)n2C)n(C)c1=O" ?
Reply: 1

Task item: Which measured inhibition value corresponds to CCN(CC)CCCN1C(=O)C(O)=C(C(C)=O)C1c1cccc(OC)c1 (configuration not stated) ?
Reply: 0

Task item: Which measured inhibition value corresponds to "CC1(C)CC(=O)C=C(Nc2ccc(F)cc2)C1" ?
Reply: 0

Task item: Which measured inhibition value corresponds to CC(C)NCC(O)COc1ccc(CC(N)=O)cc1 (configuration not stated) ?
Reply: 0

Task item: Which measured inhibition value corresponds to "CC1(C)Cc2ccccc2C(N)=C1C#N" ?
Reply: 5

Task item: Which measured inhibition value corresponds to "COc1cc2c(cc1OC)CN(Cc1nc3ccsc3c(=O)[nH]1)CC2" ?
Reply: 6
